# System: T47D
# method: NCI tumour cell line growth inhibition, 48 h
Activity calls are given as the source filed them. No stated cut-off is given here; in the data, active = GI50 up to about 1.1 µM and inactive = higher.
Can you answer with just one of these options? y (active), n (inactive)

Recorded results for 6 compounds are shown here.
| compound | measurement target | class assignment |
| --- | --- | --- |
| Cc1ccc(C2SCC(=O)N2c2ccc(-c3ccc(-n4c(-c5ccccc5)nc5ccccc5c4=O)cc3)cc2)cc1 (centres undefined) | T47D | n |
| O=C(NC1(C(=O)NNc2nnc(-c3ccccc3)c(-c3ccccc3)n2)C(c2ccccc2)C(c2ccccc2)=NN1c1ccccc1)c1ccccc1 (centres undefined) | T47D | n |
| CC(=O)/N=C1/N(/C=C2\C(=O)Oc3ccccc3C2=O)C(=O)/C(=C/c2ccc(NC(C)=O)cc2)N1C | T47D | n |
| O=C(O)c1cc(CCc2ccc(O)c(O)c2)ccc1O | T47D | n |
| CC(=O)Nc1ccc2c3c(cc(O)c2c1)N(C(=O)CCCC(=O)Nc1ccc2c4c(cc(O)c2c1)N(C(=O)OC(C)(C)C)CC4CCl)CC3CCl (centres undefined) | T47D | y |
| C1=C\SS/C=C\SS/C=C\SS/C=C\SS/1 | T47D | n |

Prompt: For `Clc1sc(Cl)c2c1[C@@H](Cl)C[C@@H]2Cl` , which call appears in the assay record?
Response: n

Prompt: Also `Cc1ccccc1NC(=O)NC(Oc1ccccc1)(C(F)(F)F)C(F)(F)F` , if possible.
Response: n

Prompt: Same for CC1=NN(c2cccc(Cl)c2)C2(SCC(=O)N2c2nc3ccccc3s2)/C1=C\c1ccccc1O (centres undefined)
Response: n

* * *

Measured GI50 accompanies every entry in the list below.
# Tested on: HL-60
# method: NCI tumour cell line growth inhibition, 48 h
Active and inactive are the calls of the source. No stated cut-off is given here; in the data, active = GI50 up to about 1.1 µM and inactive = higher.

Here's what some known entries look like.
| compound | measurement target | GI50 |
| --- | --- | --- |
| Cc1ncc([N+](=O)[O-])n1CCN(C)C(=O)CCCn1ccnc1[N+](=O)[O-] | HL-60 | > 100 µM (inactive) |
| CC(CCC(=O)O)c1ccc(Br)cc1 (configuration not stated) | HL-60 | > 100 µM (inactive) |
| Nc1ccc(C(=O)CC2(O)C(=O)Nc3c(Cl)cc(Cl)cc32)cc1 (configuration not stated) | HL-60 | 24.9 µM (inactive) |

Prompt: Given COC(=O)/C=C/C(=O)C1C(C(=O)OC)C2(C(=O)OC)CCC1(C(=O)OC)N2 (configuration not stated) , state its recorded GI50.
Response: > 100 µM (inactive)

Prompt: Please do the same for `NCCn1cnc2nc(NC(=O)c3ccccc3)[nH]c(=O)c21` as well.
Response: > 100 µM (inactive)

* * *

# System: SF-268
# method: NCI tumour cell line growth inhibition, 48 h
Calls of active or inactive are those of the source. Cut-off read from the data, not from the text of the source: active = GI50 up to about 1.1 µM and inactive = higher.
Returns: one label drawn from active, inactive

// below: answered compounds
| compound | class assignment |
| --- | --- |
| COc1ccc2c(c1)CC[C@@H]1C2CC[C@]2(C)C(=O)N(N)C(=O)CC12 (stereo partly specified) | inactive |
| [N-]=[N+]=CC(=O)OCC1SCCCS1 | inactive |
| CCOC(=O)c1ccc(C(=O)/C(C#N)=C2\CCCN2)n1C | inactive |
| Cc1c2ccnc(C(=O)NCCN(C)C)c2cc2c3cc(O)ccc3n(C)c12 | active |
| O=C(O)COc1cc(-c2ccccc2)nc2ccccc12 | inactive |

Prompt: Assay outcome for `Cc1cc2cc3c(Cl)c(CCCl)c(C)nc3cc2c(Cl)c1CCCl` : what was it?
Response: inactive

* * *

# Test system: MDA-MB-231
# method: NCI tumour cell line growth inhibition, 48 h
The source made the active and inactive calls. Cut-off read from the data, not from the text of the source: active = GI50 up to about 1.1 µM and inactive = higher.
Please reply with one of these outcomes: active, inactive

| molecule | measurement target | class assignment |
| --- | --- | --- |
| COC1=C(C)C(=O)C2=C(C1=O)C1C3CC4=C(C(=O)C(OC)=C(C)C4=O)C(CNC(=O)C(C)=O)N3C(C#N)C(C2)N1C (stereo not given) | MDA-MB-231 | active |

Next:
Prompt: Outcome? `COc1ccc(-n2cnc3c2=NC(C)(C)NC=3C(N)=O)c(OC)c1`
Response: inactive

* * *

# Test system: KM12
# method: NCI tumour cell line growth inhibition, 48 h
Activity calls are given as the source filed them. Rule as the data show it: active = GI50 up to about 1.1 µM and inactive = higher.
Below: a set of entries, each annotated with reported GI50.

Consider the reported GI50 for these compounds:
| compound | GI50 |
| --- | --- |
| NC(=S)N1N=C2c3ccccc3CC[C@H]2[C@@H]1c1cccs1 | 26.6 µM (inactive) |
| Nc1nc(Nc2cc(F)c(Cl)c(F)c2)cc(=O)[nH]1 | 27 µM (inactive) |
| O=C(CN1CCOCC1)Nc1nc(-c2ccc(Cl)cc2)cs1 | 19.5 µM (inactive) |
| O=C1NC(N2CCCC(CO)C2)=N/C1=C\c1ccc(Cl)cc1 (centres undefined) | 63.7 µM (inactive) |
| CCCCC(C(=O)NCCNC(=O)CCC(=O)N(C)O)C(=O)NCCNC(=O)CCC(=O)N(C)O | > 100 µM (inactive) |

Prompt: GET /values?readout=GI50&item= `C=CS(=O)(=O)CCN1CC1`
Response: > 10 µM (inactive)

* * *

# Test system: HOP-92
# method: NCI tumour cell line growth inhibition, 48 h
Calls of active or inactive are those of the source. Rule as the data show it: active = GI50 up to about 1.1 µM and inactive = higher.
In this section we review reported GI50 values for a set of compounds.

| compound | GI50 |
| --- | --- |
| O=C(O)c1cnc2[nH]ccn2c1=O | > 100 µM (inactive) |
| CCOC(=O)/C=C(\C(=O)OCC)n1cc(Cl)c(=O)n(CC(=O)OCC)c1=O | 1.85 µM (inactive) |
| Cc1cc2ncn(C3CCCCO3)c2cc1C (stereo not drawn) | > 100 µM (inactive) |
| CCCc1nc(N)nc(C(=O)Nc2cccc(C(F)(F)F)c2)c1CC | > 100 µM (inactive) |

Prompt: For the compound shown here, NC1CCCCC1.O=P(O)(O)C(O)/C=C/c1ccccc1 (stereo not drawn) , give the reported GI50.
Response: > 100 µM (inactive)

Prompt: Can you handle O=C(O)CCC1(Br)CCCCC(Br)C1=O (stereo not drawn) next?
Response: 32.7 µM (inactive)

Prompt: What about this compound? `[O-][N+]1=C(c2ccccc2)COc2ccccc21`
Response: > 100 µM (inactive)

Prompt: Then what about the compound `Cc1ccc(S(=O)(=O)N2CCCSCC2)cc1` ?
Response: > 100 µM (inactive)

Prompt: What do you get for `CCOC(=O)C(=O)Nc1cccc(C)c1C` ?
Response: > 100 µM (inactive)

Prompt: Repeat with `CC(C)c1cc(=O)[nH]c2cc(N)ccc12`
Response: > 100 µM (inactive)

Prompt: For COc1ccc(N)c(C(O)CCNC(C)=O)c1 (stereo not drawn) then?
Response: > 100 µM (inactive)

Prompt: Same read-out for CC(=O)CC1=C(OC(C)C)C2(OCCO2)C1O (stereo not drawn) ?
Response: > 100 µM (inactive)

Prompt: Next up: COc1cc(C2CC(C)(N3CCOCC3)Oc3cc4c(cc32)OCO4)cc(OC)c1OC (stereo not drawn)
Response: 2.67 µM (inactive)

* * *

# System: SK-MEL-28
# method: NCI tumour cell line growth inhibition, 48 h
The source made the active and inactive calls. Cut-off read from the data, not from the text of the source: active = GI50 up to about 1.1 µM and inactive = higher.
readout label: GI50

| molecule | readout label | reported result |
| --- | --- | --- |
| C=C1CCC2C(C)(CO)C(O)CCC2(C)C1CC(O)C1=CCOC1=O (stereo unspecified) | GI50 | > 100 µM (inactive) |
| CCOC1OCCCC1Br (stereo unspecified) | GI50 | > 100 µM (inactive) |
| Cc1ccc(C2SCC(=O)N2c2ccc(-c3ccc(-n4c(-c5ccccc5)nc5ccccc5c4=O)cc3)cc2)cc1 (stereo unspecified) | GI50 | > 100 µM (inactive) |

Turning to the following molecule.
Prompt: I am curious: what GI50 value has been reported for CC(=O)O[C@]1(C)CCC2C(C)C(=O)OC2C2C(C)[C@@H](O)CC21 (stereo partly specified) ?
Response: 34 µM (inactive)

* * *

# System: CAKI-1
# method: NCI tumour cell line growth inhibition, 48 h
Active and inactive are the calls of the source. No stated cut-off is given here; in the data, active = GI50 up to about 1.1 µM and inactive = higher.
readout label: GI50

Field: example entries. Status: answers known.
| compound | readout label | reported result |
| --- | --- | --- |
| C=CCON(C(=O)OC(C)(C)C)C(C)(C)C | GI50 | > 100 µM (inactive) |
| C/C(=N/NC(=S)Nc1ccc(Cl)cc1)c1cccc(/C(C)=N\NC(=S)Nc2ccc(Cl)cc2)n1 | GI50 | 3.72 µM (inactive) |
| COC1CC(OC2CCC3(C)C(=CCC4C3C(OC(C)=O)C(OC(=O)CC(C)C)C3(C)C(C(C)=O)CCC43O)C2)OC(C)C1OC1CC(OC)C(OC2CC(OC)C(OC3OC(C)C(O)C(OC)C3O)C(C)O2)C(C)O1 (stereo unspecified) | GI50 | 44 µM (inactive) |
| Brc1ccc2c(c1)-c1nc3nc4c(cc3cc1CC2)CCc1ccc(Br)cc1-4 | GI50 | > 100 µM (inactive) |
| C=CS(=O)(=O)CCN1CC1 | GI50 | > 10 µM (inactive) |

Prompt: GI50 lookup needed for `Nc1nc(Nc2cc(F)c(Cl)c(F)c2)cc(=O)[nH]1` , thanks.
Response: > 100 µM (inactive)

Prompt: Then what about the compound `c1ccc2c(c1)SC1=C(SC(=C3SC4=C(S3)Sc3ccccc3S4)S1)S2` ?
Response: > 100 µM (inactive)

Prompt: Try this compound next: `O=c1[nH]c(=O)n(C/C=C/CBr)nc1Br`
Response: 11.9 µM (inactive)

Prompt: Next compound up: CC(C)C(Nc1c2ccccc2[n+](C)c2ccccc12)C(=O)O (stereo unspecified)
Response: > 100 µM (inactive)

Prompt: Also need `CSCCOC(=O)C(=[N+]=[N-])c1ccc([N+](=O)[O-])cc1` , thanks.
Response: > 100 µM (inactive)

Prompt: Quick one: `c1ccc([P+](Cc2ccc(C[P+](c3ccccc3)(c3ccccc3)c3ccccc3)s2)(c2ccccc2)c2ccccc2)cc1`
Response: > 100 µM (inactive)

Prompt: Now the same for `CCN(CC)CCOc1ccc(N2Cc3ccccc3C2=O)cc1`
Response: > 10 µM (inactive)

Prompt: For Cn1cc2ccccc2c1-c1nc(F)nc(Oc2ccc3c(c2)CC[C@@H]2C3CC[C@]3(C)C(O)CCC23)n1 (stereo partly specified) then?
Response: > 10 µM (inactive)

Prompt: Would you kindly repeat that for CCN(CC)CC1CCCCN1CC(=O)N1c2ccc(Br)cc2C(=O)Nc2cccnc21 (stereo unspecified) ?
Response: > 100 µM (inactive)

Prompt: Similarly, `Cc1cc2oc3c(ccc(=O)n3C)c(=O)c2c(C)c1Cl` ?
Response: 67.5 µM (inactive)

Prompt: What do you have for `COCn1c(C)c(C)c2c(=O)oc(=O)[nH]c21` ?
Response: 8.24 µM (inactive)

Prompt: What about `NC(=O)NNCc1ccccc1` ?
Response: > 100 µM (inactive)

Prompt: // query: `O=c1[nH]n2c(=O)cc[nH]c2c1-c1nnns1`
Response: > 100 µM (inactive)

Prompt: Queued: `Cc1c(N(Cc2ccccc2)Cc2ccccc2)nc(S(C)(=O)=O)nc1S(C)(=O)=O`
Response: 8.07 µM (inactive)

Prompt: CN(C)c1ccc(C2CC(C)(O)Oc3cc4c(cc32)OCO4)cc1 (stereo unspecified) ?
Response: 66.2 µM (inactive)

Prompt: Would you kindly repeat that for `O=C(CSc1nccc(=O)[nH]1)c1ccccc1` ?
Response: > 100 µM (inactive)
